B1: HDV Ribozyme (parent)
chain: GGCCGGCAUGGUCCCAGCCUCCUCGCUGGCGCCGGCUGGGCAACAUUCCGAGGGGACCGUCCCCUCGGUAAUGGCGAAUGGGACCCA

Variants of: B1
Assay: self-cleavage, relative activity (ratio to wild type); higher = more cleavage; co-transcriptional
Would you kindly list self-cleavage for each of these variants?
Give bare numbers.

Recorded self-cleavage, per entry:
{"Sequence Code": "GCCCGGCAUGGUCCCAGCCUCCUCGCUGGCGCCGGCUGGGCAACAUUCCGAGGGGACCGUCCCCUCGGUAAUGGCGAAUGGGCCCCA [G2C A83C]", "self-cleavage": 0.0302}
{"Sequence Code": "GGCCGGCAUGGUCCCAGCCUCCUCGCUGGCGCCGUCUGGGCAACAUUCCGAGGGGACCGUCCCCUCGGUAAUGACGAAUGGGACCCA [G35U G74A]", "self-cleavage": 0.058}
{"Sequence Code": "GGCCGGCAUGGUCCCAGCGUCCUCGCUGGCGCCGGCUAGGCAACAUUCCGAGGGGACCGUCCCCUCGGUAAUGGCGAAUGGGACCCA [C19G G38A]", "self-cleavage": 0.0511}

Record self-cleavage per entry; entries follow.
1. GGCCGGCAUGGCCCCAGCCUCCUCGCUGGCGCCGGCUGGGCAACAUUCCGAGGGGACCGUCCCCUCGGUAAAGGCGAAUGGGACCCA [U12C U72A]
2. GGCCGGCAUGGUCCCAGCCUCCUCGCUGACGCCGGCUGGGCAACAUUCCGAGGUGACCGUCCCCUCGGUAAUGGCGAAUGGGACCCA [G29A G54U]
3. GGCCGGCAUGGUCCCAGCCUCCUCGCUGGCGCCGGCUGGGCAACAUUCCGAGGGGACCGUCCCCUCGGUAACGGCGAAUCGGACCCA [U72C G80C]
4. GGCCGGCAGGGUCCCAGCCUCCUCGCUGGCACCGGCUGGGCAACAUUCCGAGGGGACCGUCCCCUCGGUAAUGGCGAAUGGGACCCA [U9G G31A]

0.107
0.119
0.19
0.675

Could you report self-cleavage for every entry in the following list?
1. GGCCGGCAUGGUCCCAGCUUCCUCGCUGGCGCCGGCUGGGCAACAUUCCGAGGGGACCGUCCACUCGGUAAUGGCGAAUGGGACCCA [C19U C63A]
2. GGCCGGCAUGGUCCCAGCCUCCGCGCUGGCGCCGGCUGGGCAACAUUCCGAGGAGACCGUCCCCUCGGUAAUGGCGAAUGGGACCCA [U23G G54A]
3. AGCCGGCAUGGUCCCAGCCUCCUCGCUGGCGCCGGCUGGGCAACAUUCCGAGGGGACCGUCCCCUCGGUAAUGACGAAUGGGACCCA [G1A G74A]

1: 0.199; 2: 0.928; 3: 0.0287

Dear reader, for each entry below, please note its self-cleavage.
1. GGCCGGCAUGGUCCCAGCCUCCUCGCUGGCGCCGGCUGGGCAACAUUUCGAGGGGACCGUCCCCUCGGUAAUGGCGAAUGGGACCCU [C48U A87U]
2. GGCCGGCAUGGUCCCAGCCUCCUCGCUGGCGCCGGCUGGGCAACAUUCCGAGGGUACCGUCCCCUCGGUAAUGCCGAAUGGGACCCA [G55U G74C]
3. GGACGGCAUGGUCCCAGCCUCCUCGCUGGCGCCGGCUGGGCAACAUUCCGAGGGGACCGUCCCCUCGUUAAUGGCGAAUGGGACCCA [C3A G68U]
4. GGCCGGCAUGGUCCCAGUCUCCUCGCUGGCGCCGGCUGGGCAACAUUCCGAGGUGACCGUCCCCUCGGUAAUGGCGAAUGGGACCCA [C18U G54U]
5. GGUCGGCAUGGUCCCAGCCUCCUCGCUGGCGCCGGCUGGGCAACAUUCCGAGGGGACCGUCCCCUCGGUAAUGGGGAAUGGGACCCA [C3U C75G]

1: 0.942; 2: 0.208; 3: 0.465; 4: 0.661; 5: 0.104

Go through the items and report each one's self-cleavage.
1. GGCCGGCAUGGUCGCAGCCUCCUGGCUGGCGCCGGCUGGGCAACAUUCCGAGGGGACCGUCCCCUCGGUAAUGGCGAAUGGGACCCA [C14G C24G]
2. GGCCGGCUUGGUCCCAGCCUCCUCGCUGGCGCCGGCUGUGCAACAUUCCGAGGGGACCGUCCCCUCGGUAAUGGCGAAUGGGACCCA [A8U G39U]
3. GGCCGGCAUGGUCCCAGCCUCCUCGCUGGCGCCGGCUGGGCAACAUUCCGAGGGAACCGUCCCCUCGGUAAUGGCGAAUGGGCCCCA [G55A A83C]
4. GGCCGGCAUGGUCCCAGCCUCCUCGCUGGCGCCGGCUGGGAAACAUUCCGAGGGGACCGACCCCUCGGUAAUGGCGAAUGGGACCCA [C41A U60A]
5. GGCCGGCAUGGCCCCAGCCUCCUCGCUGGCGCCGGCUGGGCAACAUUCCGAGGGGACCGUCUCCUCGGUAAUGGCGAAUGGGACCCA [U12C C62U]
6. GGCCGGCAUGGUCCCAGCCUCCUCGCUGGCGCCGGCUGGGCAACAUUCCGAGGGGAUCGUCCCCUCGGUAAUGGCGAAUGGGACCCA [C57U]
7. GGCCGGCAUGGUCCCAGUCUCCUCGCUGGCGCCGGCUGGGCAACAUUCCGAGGGGACCGUCCCCUCGGUAAAGGCGAAUGGGACCCA [C18U U72A]

[0, 0.571, 0.731, 0.979, 0.348, 0.993, 0.175]

Fill in self-cleavage for each of the 4 variants listed.
1. GGCCGGCAUGGUCCCACCCUCCUCGCUGGCGCCGGCUGGGCAACAUUCCGAGGGGACCGUCCCCUCGGUAAUGACGAAUGGGACCCA [G17C G74A]
2. GGCCGGCAUGGUCCCAGCCUCCUCGCUGGCGACGCCUGGGCAACAUUCCGAGGGGACCGUCCCCUCGGUAAUGGCGAAUGGGACCCA [C32A G35C]
3. GGCCGGCAUGGUCCCAGCCUCCUCGCUGGCGCCGGCUGGGCAACAUUCCGAGGGGACCGUCGCCUAGGUAAUGGCGAAUGGGACCCA [C62G C66A]
4. GGCCGGCAUGUUCGCAGCCUCCUCGCUGGCGCCGGCUGGGCAACAUUCCGAGGGGACCGUCCCCUCGGUAAUGGCGAAUGGGACCCA [G11U C14G]

[0.089, 0.0405, 0.323, 0.0692]

Okay, here is my list. What is self-cleavage for each of these?
1. GGCCGGCAUGGUCCCAGCCUCCUCGCUGGCGCCGGCUGGGCAACAUUCCGAGGGUACAGUCCCCUCGGUAAUGGCGAAUGGGACCCA [G55U C58A]
2. GGCCGGCCUGGUCCCAGCCUCCUCGCUGGCGCCGGCUGGGGAACAUUCCGAGGGGACCGUCCCCUCGGUAAUGGCGAAUGGGACCCA [A8C C41G]
3. GGCCGGCAUGGUCCCAGCCUCAUCGCUGGCGCCGGCUGGGCAACAUUCCGAGGGGACCGUCCCCUCGGUAAUGGGGAAUGGGACCCA [C22A C75G]
4. GGCCGGCAUGGUCCCAGCCUCCUCGCUGGCGCCGGCUGGGCAACAGUCCGAGGGGACCGUCCCCUCGGUAAUGGCGAAUGGAACCCA [U46G G82A]
5. GGCCGGCAUGGUCCCAGCCUCUUCGCUGGCGCCGGCUGGGCAACAUUCCGAGGGGACUGUCCCCUCGGUAAUGGCGAAUGGGACCCA [C22U C58U]
6. GGCCGGCAUGGUCCCAGCCUCCUCGCAGGCGCCGGCUGGGCAACAUUCCAAGGGGACCGUCCCCUCGGUAAUGGCGAAUGGGACCCA [U27A G50A]
7. GGCCGGCAUGGUCCCAGCCUCCUCGCUGGCGCCGGCUGGGCAACAUUCCGAGGGGACCUUCCCCUCGGUUAUGGCGAAUGGGACCCA [G59U A70U]

1. 0.843
2. 0.457
3. 0.0604
4. 0.161
5. 0.684
6. 0.967
7. 0.923

Parameters: items (list). Returns: self-cleavage for each item.
1. GGCCGGCAUGGUCCCAGCCUCCUCGCUGGCGCCGGCUGGGCAACAUUCCGAGGGGACCGUCCCCUCGGUAAUGGCAAAUGGGAGCCA [G76A C84G]
2. GGCCGGCAUGGUCCCAGCCUCCUCGCUGGCGCCGGCUGGGCAACAUUCCGACGGGACCGUCCCCUCGGUAAUGGAGAAUGGGACCCA [G52C C75A]
3. GGCCGGCAUGGUCCCAGCCUCCUCGCUGGCGCCGACUGGGGAACAUUCCGAGGGGACCGUCCCCUCGGUAAUGGCGAAUGGGACCCA [G35A C41G]

0.939
0.153
0.222

Hi, could you look up self-cleavage for each item in my list?
1. GGCCGGCAUGGUCCCAGCCUCCUCGCUGGCGCCGGCUGGGCAACAUUCCGCGGGGACCGUCGCCUCGGUAAUGGCGAAUGGGACCCA [A51C C62G]
2. GGCCGGCAUGGUCCCAGCCUCCUCGCUGGCGCCGGCUGGGCAACAUUCCGAGGGGACCGUCCCCCCGGUAAUGGCGAAUGCGACCCA [U65C G81C]
3. GGCCGGCAUGGUCCCAGCCUCCUCGCUGACGCCGGCUGGGCAACAUUCCGAGGGGACCGUCCCCUCGGUAAUGGCGAAUGCGACCCA [G29A G81C]
4. GGCCGGCAUGGUCCCAGCCUCCUCGCUGGCGCCGGCUGGGCAAUAUUCCGAGGGGACCGUCCCCUCGGCAAUGGCGAAUGGGACCCA [C44U U69C]

1: 0.151; 2: 0.227; 3: 0.0314; 4: 0.814
